target: PfRuvB3; test: Effect of DNA helicase inhibitors on PfRuvB3 unwinding (helicase) activity; settings: recombinant PfRuvB3; M13-17-mer duplex DNA pre-incubated with 0.1 to 50 μM drug for 10 min; 37 °C 90 min
readout: IC50 (µM)
One number for each entry, in µM.

Guide cases for IC50, answers given:
Cn1cc(NC(=O)c2cc(NC(=O)CN=C(N)N)cn2C)cc1C(=O)NCCC(=N)N [netropsin] :: 7.09
COc1cccc2c1C(=O)c1c(O)c3c(c(O)c1C2=O)C[C@@](O)(C(C)=O)C[C@@H]3O[C@H]1C[C@H](N)[C@H](O)[C@H](C)O1 [daunorubicin] :: 0.76

Turning now to a further record.
Task: Given COc1cccc2c1C(=O)c1c(O)c3c(c(O)c1C2=O)C[C@@](O)(C(=O)CO)C[C@@H]3O[C@H]1C[C@H](N)[C@H](O)[C@H](C)O1 [doxorubicin] , state its recorded IC50.
Result: 2.6
